Reference source for all entries: paper PMC10500703

The entries below come with measured half-life at 24 h values attached.
assay: Mouse PK, intravenous dosing; format: in vivo; conditions: in vivo, iv, 2 mg/kg
Measurement Label: half-life at 24 h (h)

{"Smiles Repr": "CS(=O)(=O)NC(=O)NCc1cn(-c2ccc(Cl)cc2)nc1-c1ccncc1", "Unit Name": "h", "Measured Value": 2}
{"Smiles Repr": "CS(=O)(=O)NC(=O)CCc1cn(-c2ccc(Br)cc2)nc1-c1ccc(Cl)cc1", "Unit Name": "h", "Measured Value": 2}

====

test: physchem; settings: pH 7
Measurement Label: solubility (µM)

{"Smiles Repr": "CS(=O)(=O)NC(=O)/C=C/c1cn(-c2ccc(Br)cc2)nc1-c1ccncc1", "Measurement Label": "solubility", "Measured Value": 185}
